System: HEK293
methodSummary: IC50 for inhibition of ZIKV NS1 production
observedProperty: log10 of IC50 (log10 of the value in µM)
Use the decimal logarithm of IC50 (µM).

// query Entry CCCCCC(=O)O[C@]1(C(C)=O)CC[C@H]2[C@@H]3CCC4=CC(=O)CC[C@]4(C)[C@H]3CC[C@@]21C has what log10 of IC50?
// result 1.70

// query Entry COc1cc(OC)c(/C=C/S(=O)(=O)Cc2ccc(OC)c(NCC(=O)O)c2)c(OC)c1 has what log10 of IC50?
// result 0.15

// query Entry Cc1ccc(C(=O)N(CCCN)[C@@H](c2nc3cc(Cl)ccc3c(=O)n2Cc2ccccc2)C(C)C)cc1 has what log10 of IC50?
// result -1.17

// query Entry CC(C)c1cnn2c(NCc3ccccc3)cc(N[C@@H](CO)[C@H](O)CO)nc12 has what log10 of IC50?
// result 0.08

// query Entry CC(C)(O)Cn1c(NC(=O)c2ccc(-c3cn[nH]c3)s2)nc2cc(CN3CCOCC3)ccc21 has what log10 of IC50?
// result 0.92

// query Entry Cc1ccc(-c2ncn(-c3ccc(Nc4nccc(-c5cccc(N6CCOCC6)c5)n4)cc3)n2)cn1 has what log10 of IC50?
// result 0.28

// query Entry Cn1c2ccccc2c2c3c(c4c5ccccc5n(CCC#N)c4c21)CNC3=O has what log10 of IC50?
// result -0.03

// query Entry COc1cc2nc(-c3cc(F)ccc3O)nc(N[C@@H]3CNC[C@H]3C(C)(C)O)c2cc1OC has what log10 of IC50?
// result 1.08

// query Entry CC1=C(CO)C(=O)O[C@@H]([C@@H](C)[C@H]2CC[C@H]3[C@@H]4C[C@H]5O[C@]56[C@@H](O)C=CC(=O)[C@]6(C)[C@H]4CC[C@]23C)C1 has what log10 of IC50?
// result 0.45

// query Entry O=C1NCCc2[nH]c(-c3ccncc3)cc21 has what log10 of IC50?
// result 1.30

// query Entry Cc1ccc(NC(=O)c2ccc(CN3CCN(C)CC3)cc2)cc1Nc1nccc(-c2cccnc2)n1 has what log10 of IC50?
// result 1.78

// query Entry Nc1cc(C(F)(F)F)c(-c2cc(N3CCOCC3)nc(N3CCOCC3)n2)cn1 has what log10 of IC50?
// result 0.62

// query Entry O=[N+]([O-])c1ccc2c(c1)S(=O)(=O)C=C2 has what log10 of IC50?
// result 1.04

// query Entry O=C1NC(=O)/C(=C/c2ccc3nccc(-c4ccncc4)c3c2)S1 has what log10 of IC50?
// result 0.28

// query Entry CC(C)(C)c1cnc(CSc2cnc(NC(=O)C3CCNCC3)s2)o1 has what log10 of IC50?
// result 0.28

// query Entry C[C@H](NCc1ccc2c(c1)nc(NC(=O)c1ccc(-c3cn[nH]c3)s1)n2CCc1ccccc1)C(C)(C)C has what log10 of IC50?
// result 1.23

// query Entry C[C@@H](Oc1cc(-n2cnc3ccc(CN4CCN(C)CC4)cc32)sc1C(N)=O)c1ccccc1C(F)(F)F has what log10 of IC50?
// result 1.15

// query Entry COc1cc([C@@H]2c3cc4c(cc3[C@@H](O[C@@H]3O[C@@H]5CO[C@@H](C)O[C@H]5[C@H](O)[C@H]3O)[C@H]3COC(=O)[C@H]23)OCO4)cc(OC)c1O has what log10 of IC50?
// result 0.34

// query Entry CN(C)C(=S)SSC(=S)N(C)C has what log10 of IC50?
// result -0.29

---

System: HEK293
methodSummary: maximal inhibition of ZIKV NS1 production (% inhibition); higher = stronger antiviral effect
Please respond with reported maximal inhibition for every item in the list.
Lab note: record just the number, no unit beside it.

// query Entry Cc1ccc(-c2ncn(-c3ccc(Nc4nccc(-c5cccc(N6CCOCC6)c5)n4)cc3)n2)cn1 has what maximal inhibition?
// result 87

// query Entry CN[C@@H]1C[C@H]2O[C@@](C)([C@@H]1OC)n1c3ccccc3c3c4c(c5c6ccccc6n2c5c31)C(=O)N[C@H]4O has what maximal inhibition?
// result 96

// query Entry C[C@H](NCc1ccc2c(c1)nc(NC(=O)c1ccc(-c3cn[nH]c3)s1)n2CCc1ccccc1)C(C)(C)C has what maximal inhibition?
// result 98

// query Entry CN(C)c1ccc(C(=C2C=CC(=[N+](C)C)C=C2)c2ccccc2)cc1 has what maximal inhibition?
// result 102

// query Entry CCc1c2c(nc3ccc(OC(=O)N4CCC(N5CCCCC5)CC4)cc13)-c1cc3c(c(=O)n1C2)COC(=O)[C@]3(O)CC has what maximal inhibition?
// result 97

// query Entry O[C@@H](CNC[C@H](O)[C@H]1CCc2cc(F)ccc2O1)[C@@H]1CCc2cc(F)ccc2O1 has what maximal inhibition?
// result 94

// query Entry COc1ccc(OC)c(-c2nnc3ccc(-c4ccc(OC)c(O[C@@H]5CCOC5)c4)nn23)c1 has what maximal inhibition?
// result 42

// query Entry N=C(N)NN=C(/C=C/c1ccc([N+](=O)[O-])o1)/C=C/c1ccc([N+](=O)[O-])o1 has what maximal inhibition?
// result 102

// query Entry CN(C)C(=S)SSC(=S)N(C)C has what maximal inhibition?
// result 99

// query Entry CC(C)c1cnn2c(NCc3ccccc3)cc(N[C@@H](CO)[C@H](O)CO)nc12 has what maximal inhibition?
// result 87

// query Entry CC(C)COCC(CN(Cc1ccccc1)c1ccccc1)N1CCCC1 (configuration not stated) has what maximal inhibition?
// result 55

// query Entry O=C1NC(=O)/C(=C/c2ccc3nccc(-c4ccncc4)c3c2)S1 has what maximal inhibition?
// result 82

// query Entry OCCCNc1cc(-c2ccnc(Nc3cccc(Cl)c3)n2)ccn1 has what maximal inhibition?
// result 103

// query Entry O=C(Nc1ccncc1)C(=O)c1cn(Cc2ccc(Cl)cc2)c2ccccc12 has what maximal inhibition?
// result 39

// query Entry CC[C@]1(O)C[C@H]2CN(CCc3c([nH]c4ccccc34)[C@@](C(=O)OC)(c3cc4c(cc3OC)N(C=O)[C@H]3[C@@](O)(C(=O)OC)[C@H](OC(C)=O)[C@]5(CC)C=CCN6CC[C@]43[C@@H]65)C2)C1 has what maximal inhibition?
// result 55

// query Entry C[C@@H]1O[C@@H](O[C@@H]2C=C3CC[C@@H]4[C@H](CC[C@]5(C)[C@@H](c6ccc(=O)oc6)CC[C@]45O)[C@@]3(C)CC2)[C@H](O)[C@H](O)[C@H]1O has what maximal inhibition?
// result 105

// query Entry O=C1NCCN1CCN1CCC(c2cn(-c3ccc(F)cc3)c3ccc(Cl)cc23)CC1 has what maximal inhibition?
// result 99

---

System: HEK293
methodSummary: cytotoxicity IC50 (ATP content, uninfected cells); higher = less cytotoxic
testContext: infection: none
Cut-off 2 µM on cytotoxicity IC50, inclusive. At or above means yes (1); below means no (0).

// query Please indicate if the recorded cytotoxicity IC50 for CCCCC1C(=O)N(c2ccccc2)N(c2ccc(O)cc2)C1=O (centres undefined) meets or exceeds 2 µM.
// result yes (1)

// query Please indicate if the recorded cytotoxicity IC50 for CC[C@H](CC#N)OC(=O)N[C@@H](C)c1cccc(NC(=O)Nc2ccc(-c3cnco3)c(OC)c2)c1 meets or exceeds 2 µM.
// result yes (1)

// query Please indicate if the recorded cytotoxicity IC50 for Cc1[nH]nc2ccc(-c3cncc(OC[C@@H](N)Cc4ccccc4)c3)cc12 meets or exceeds 2 µM.
// result no (0)

// query Please indicate if the recorded cytotoxicity IC50 for CN1CCN(Cc2ccc(NC(=O)Nc3ccc(Oc4cc(NC(=O)C5CC5)ncn4)cc3)cc2C(F)(F)F)CC1 meets or exceeds 2 µM.
// result yes (1)

// query Please indicate if the recorded cytotoxicity IC50 for CC[n+]1c(/C=C/C=C2/N(C)c3ccccc3C2(C)C)sc2ccccc21 meets or exceeds 2 µM.
// result no (0)

// query Please indicate if the recorded cytotoxicity IC50 for CC[C@]1(O)C[C@H]2CN(CCc3c([nH]c4ccccc34)[C@@](C(=O)OC)(c3cc4c(cc3OC)N(C=O)[C@H]3[C@@](O)(C(=O)OC)[C@H](OC(C)=O)[C@]5(CC)C=CCN6CC[C@]43[C@@H]65)C2)C1 meets or exceeds 2 µM.
// result yes (1)

// query Please indicate if the recorded cytotoxicity IC50 for Cn1c(CCCC(=O)O)nc2cc(N(CCCl)CCCl)ccc21 meets or exceeds 2 µM.
// result yes (1)

// query Please indicate if the recorded cytotoxicity IC50 for CCN1/C(=C/C=C/c2sc3ccccc3[n+]2CC)Sc2ccccc21 meets or exceeds 2 µM.
// result no (0)

// query Please indicate if the recorded cytotoxicity IC50 for Cc1c2oc3c(C)ccc(C(=O)N[C@@H]4C(=O)N[C@H](C(C)C)C(=O)N5CCC[C@H]5C(=O)N(C)CC(=O)N(C)[C@@H](C(C)C)C(=O)O[C@@H]4C)c3nc-2c(C(=O)N[C@@H]2C(=O)N[C@H](C(C)C)C(=O)N3CCC[C@H]3C(=O)N(C)CC(=O)N(C)[C@@H](C(C)C)C(=O)O[C@@H]2C)c(N)c1=O meets or exceeds 2 µM.
// result yes (1)

// query Please indicate if the recorded cytotoxicity IC50 for COc1cc(OC)c(/C=C/S(=O)(=O)Cc2ccc(OC)c(NCC(=O)O)c2)c(OC)c1 meets or exceeds 2 µM.
// result yes (1)

// query Please indicate if the recorded cytotoxicity IC50 for COc1c(C)c2c(c(O)c1C/C=C(\C)CCC(=O)O)C(=O)OC2 meets or exceeds 2 µM.
// result yes (1)

// query Please indicate if the recorded cytotoxicity IC50 for CN(C)CCN(C)C(=O)c1ccc(NC(=O)Nc2ccc(-c3nc(N4CCOCC4)c4ccn(CC(F)(F)F)c4n3)cc2)cc1 meets or exceeds 2 µM.
// result yes (1)

// query Please indicate if the recorded cytotoxicity IC50 for CC[C@@H]1C(=O)N(C)c2cnc(Nc3ccc(C(=O)N[C@H]4CC[C@H](N5CCN(CC6CC6)CC5)CC4)cc3OC)nc2N1C(C)C meets or exceeds 2 µM.
// result yes (1)

// query Please indicate if the recorded cytotoxicity IC50 for O=C1c2ccccc2-[n+]2ccc3c([nH]c4ccccc43)c21 meets or exceeds 2 µM.
// result yes (1)

// query Please indicate if the recorded cytotoxicity IC50 for OCCCNc1cc(-c2ccnc(Nc3cccc(Cl)c3)n2)ccn1 meets or exceeds 2 µM.
// result yes (1)

// query Please indicate if the recorded cytotoxicity IC50 for CC(C)C[C@H](NC(=O)[C@H](Cc1ccccc1)NC(=O)c1cnccn1)B(O)O meets or exceeds 2 µM.
// result no (0)

// query Please indicate if the recorded cytotoxicity IC50 for COc1c(OCCCN2CCOCC2)ccc2c3n(c(=NC(=O)c4cnc(N)nc4)nc12)CCN3 meets or exceeds 2 µM.
// result yes (1)

// query Please indicate if the recorded cytotoxicity IC50 for Cn1c(=O)c(-c2c(Cl)cccc2Cl)cc2cnc(Nc3ccc(N4CCOCC4)cc3)nc21 meets or exceeds 2 µM.
// result yes (1)

// query Please indicate if the recorded cytotoxicity IC50 for Cc1nc2cnc3ccc(C#Cc4cccnc4)cc3c2n1-c1ccc(C(C)(C)C#N)cc1 meets or exceeds 2 µM.
// result yes (1)

// query Please indicate if the recorded cytotoxicity IC50 for Oc1cccc(-c2nc(N3CCOCC3)c3oc4ncccc4c3n2)c1 meets or exceeds 2 µM.
// result no (0)

// query Please indicate if the recorded cytotoxicity IC50 for Cc1ccc(-c2ncn(-c3ccc(Nc4nccc(-c5cccc(N6CCOCC6)c5)n4)cc3)n2)cn1 meets or exceeds 2 µM.
// result yes (1)

// query Please indicate if the recorded cytotoxicity IC50 for CC(C)C[C@H](NC(=O)[C@@H](NC(=O)c1cccc(-c2ccccc2)n1)[C@@H](C)O)B(O)O meets or exceeds 2 µM.
// result no (0)

// query Please indicate if the recorded cytotoxicity IC50 for Cn1c2ccccc2c2c3c(c4c5ccccc5n(CCC#N)c4c21)CNC3=O meets or exceeds 2 µM.
// result yes (1)

// query Please indicate if the recorded cytotoxicity IC50 for OC(c1cc(C(F)(F)F)nc2c(C(F)(F)F)cccc12)C1CCCCN1 (centres undefined) meets or exceeds 2 µM.
// result yes (1)

// query Please indicate if the recorded cytotoxicity IC50 for CS(=O)(=O)N1CCN(Cc2cc3nc(-c4cccc5[nH]ncc45)nc(N4CCOCC4)c3s2)CC1 meets or exceeds 2 µM.
// result yes (1)

// query Please indicate if the recorded cytotoxicity IC50 for CCCCCCCCc1ccc(CCC(N)(CO)CO)cc1 meets or exceeds 2 µM.
// result yes (1)

// query Please indicate if the recorded cytotoxicity IC50 for O=C1NC(=O)[C@@H](c2cn3c4c(cccc24)CCC3)[C@@H]1c1c[nH]c2ccccc12 meets or exceeds 2 µM.
// result no (0)

// query Please indicate if the recorded cytotoxicity IC50 for COc1cc2nc(-c3cc(F)ccc3O)nc(N[C@@H]3CNC[C@H]3C(C)(C)O)c2cc1OC meets or exceeds 2 µM.
// result yes (1)

// query Please indicate if the recorded cytotoxicity IC50 for COc1cccc(-c2ccc(NC(=O)C3=C(C(=O)O)CCC3)c(F)c2)c1 meets or exceeds 2 µM.
// result no (0)

// query Please indicate if the recorded cytotoxicity IC50 for O=c1[nH]c(=O)n([C@H]2C[C@H](O)[C@@H](CO)O2)cc1F meets or exceeds 2 µM.
// result yes (1)

// query Please indicate if the recorded cytotoxicity IC50 for CC(C)(O)/C=C/C(=O)[C@](C)(O)[C@H]1[C@H](O)C[C@@]2(C)[C@@H]3CC=C4[C@@H](C=C(O)C(=O)C4(C)C)[C@]3(C)C(=O)C[C@]12C meets or exceeds 2 µM.
// result yes (1)

// query Please indicate if the recorded cytotoxicity IC50 for Cc1c(O)cccc1C(=O)N[C@@H](CSc1ccccc1)[C@H](O)CN1C[C@H]2CCCC[C@H]2C[C@H]1C(=O)NC(C)(C)C meets or exceeds 2 µM.
// result yes (1)

// query Please indicate if the recorded cytotoxicity IC50 for Cc1ccc([N+](=O)[O-])cc1S(=O)(=O)N(C)/N=C/c1cnc2ccc(Br)cn12 meets or exceeds 2 µM.
// result yes (1)

// query Please indicate if the recorded cytotoxicity IC50 for CCOC(=O)C1=C(C)NC2=C(C(=O)CC(C)(C)C2)C1c1ccc(-c2ccccc2)cc1 (centres undefined) meets or exceeds 2 µM.
// result yes (1)
